Target: T1, NPR-B (natriuretic peptide receptor B), murine, expressed endogenously on NIH3T3 cells (murine, UniProt Q6VVW5 17-1047)
T1 sequence (looked up): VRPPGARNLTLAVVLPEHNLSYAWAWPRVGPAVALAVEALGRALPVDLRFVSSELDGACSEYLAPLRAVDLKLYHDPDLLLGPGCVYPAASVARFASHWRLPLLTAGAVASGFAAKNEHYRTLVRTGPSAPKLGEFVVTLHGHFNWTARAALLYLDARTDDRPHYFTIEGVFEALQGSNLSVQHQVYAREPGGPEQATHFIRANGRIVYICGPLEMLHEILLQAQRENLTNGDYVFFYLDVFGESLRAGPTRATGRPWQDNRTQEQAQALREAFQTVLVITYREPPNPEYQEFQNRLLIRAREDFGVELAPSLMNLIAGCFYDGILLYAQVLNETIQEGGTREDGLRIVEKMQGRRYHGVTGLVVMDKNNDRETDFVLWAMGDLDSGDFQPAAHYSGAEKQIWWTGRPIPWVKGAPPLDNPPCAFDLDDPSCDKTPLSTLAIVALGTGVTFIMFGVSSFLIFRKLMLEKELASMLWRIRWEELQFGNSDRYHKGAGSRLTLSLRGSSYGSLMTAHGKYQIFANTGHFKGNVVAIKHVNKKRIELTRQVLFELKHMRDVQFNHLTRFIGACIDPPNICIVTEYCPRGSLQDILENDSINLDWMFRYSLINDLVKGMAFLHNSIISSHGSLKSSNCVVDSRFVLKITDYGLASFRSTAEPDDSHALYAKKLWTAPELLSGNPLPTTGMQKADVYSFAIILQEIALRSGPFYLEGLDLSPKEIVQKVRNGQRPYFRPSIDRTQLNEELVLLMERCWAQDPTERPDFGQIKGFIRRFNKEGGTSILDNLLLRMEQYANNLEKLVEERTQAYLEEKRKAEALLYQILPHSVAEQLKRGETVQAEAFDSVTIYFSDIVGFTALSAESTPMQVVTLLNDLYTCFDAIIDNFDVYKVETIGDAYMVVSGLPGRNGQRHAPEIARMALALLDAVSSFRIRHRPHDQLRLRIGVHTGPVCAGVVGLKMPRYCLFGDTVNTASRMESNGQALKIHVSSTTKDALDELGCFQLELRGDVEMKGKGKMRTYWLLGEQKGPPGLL
Assay: cell-based or functional assay
Where no end group is shown, it is not given here. [ ]: non-standard residue; d: D form. tBuAla = CC(C)(C)C[C@H](N)C(=O)O
OBSERVED PROPERTY: cGMP response rel. to 1 uM CNP22; 1 uM peptide, NIH3T3 cells

# annotated cases, reported cGMP response rel. to 1 uM CNP22; 1 uM peptide, NIH3T3 cells shown
# get_value(readout='cGMP response rel. to 1 uM CNP22; 1 uM peptide, NIH3T3 cells', item= GLSRGCFVLKLDRIGSMSGLGC [CNP22, K4R, G8V] )
25 rel. to 1 uM CNP22 (100)

# get_value(readout='cGMP response rel. to 1 uM CNP22; 1 uM peptide, NIH3T3 cells', item= GLSRGCFGLKLDRIGSVSGLGC [CNP22, K4R, M17V] )
65 rel. to 1 uM CNP22 (100)

# get_value(readout='cGMP response rel. to 1 uM CNP22; 1 uM peptide, NIH3T3 cells', item= GLSRGCFGLKLDRIGSMSG[tBuAla]GC (ends and bridges not checked) [CNP22, K4R, L20t-butyl-Ala] )
21 rel. to 1 uM CNP22 (100)

Further cases:
# get_value(readout='cGMP response rel. to 1 uM CNP22; 1 uM peptide, NIH3T3 cells', item= GLSRGCYGLKLDRIGSMSGLGC (ends and bridges not checked; cysteine pairing not given here) [CNP22, K4R, F7Y] )
18 rel. to 1 uM CNP22 (100)

Where do these numbers come from? They come from patent USRE48267E1.
